studySystem: Androgen receptor (Homo sapiens, UniProt P10275)
methodNotes: Agonist activity at human AR expressed in African green monkey CV1 cells after 17 hrs by ARE-driven luciferase reporter gene assay
Type: cell-based, CV-1
measuredProperty: pEC50
pEC50 is defined as minus the log10 of a concentration measured in mol/L.

Inquiry: Find the recorded pEC50 belonging to CN1C(=O)C(F)=C[C@]2(C)[C@H]3CC[C@]4(C)[C@@H](C(=O)NCc5nc6cccnc6[nH]5)CC[C@H]4[C@@H]3CC[C@@H]12 and report it.
Reply text: 6.84

* * *

studySystem: Androgen receptor (Homo sapiens, UniProt P10275)
Sequence (P10275 whole entry): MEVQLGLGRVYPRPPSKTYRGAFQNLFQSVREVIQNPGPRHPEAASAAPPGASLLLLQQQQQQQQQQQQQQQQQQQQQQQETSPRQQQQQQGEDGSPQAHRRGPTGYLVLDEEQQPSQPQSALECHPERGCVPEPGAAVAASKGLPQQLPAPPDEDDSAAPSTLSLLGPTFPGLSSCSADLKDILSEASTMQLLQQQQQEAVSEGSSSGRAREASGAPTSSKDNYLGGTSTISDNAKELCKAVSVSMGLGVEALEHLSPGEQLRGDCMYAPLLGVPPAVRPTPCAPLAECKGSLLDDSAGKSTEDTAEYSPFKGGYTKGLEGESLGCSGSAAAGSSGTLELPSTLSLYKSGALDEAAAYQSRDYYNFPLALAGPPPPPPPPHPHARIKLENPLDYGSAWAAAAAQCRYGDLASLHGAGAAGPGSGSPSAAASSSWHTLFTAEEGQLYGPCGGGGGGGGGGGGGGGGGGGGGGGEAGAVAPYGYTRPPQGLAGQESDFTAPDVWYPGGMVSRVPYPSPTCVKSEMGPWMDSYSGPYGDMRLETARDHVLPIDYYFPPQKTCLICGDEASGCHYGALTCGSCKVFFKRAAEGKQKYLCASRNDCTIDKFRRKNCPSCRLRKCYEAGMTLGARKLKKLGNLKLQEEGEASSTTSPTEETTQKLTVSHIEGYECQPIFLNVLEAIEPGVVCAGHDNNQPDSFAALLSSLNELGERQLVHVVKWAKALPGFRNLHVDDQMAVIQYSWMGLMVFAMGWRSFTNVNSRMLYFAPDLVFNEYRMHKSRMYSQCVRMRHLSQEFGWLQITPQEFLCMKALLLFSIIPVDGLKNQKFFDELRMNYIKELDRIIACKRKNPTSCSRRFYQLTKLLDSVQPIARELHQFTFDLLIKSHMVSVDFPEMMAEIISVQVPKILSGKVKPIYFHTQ
methodNotes: Displacement of [3H]mibolerone from human AR expressed in COS cells after 3.5 hrs by liquid scintillation counting analysis
measuredProperty: IC50 (nM)
Could you give me the number in nM? Just the number is fine.

Inquiry: Recorded IC50 of CCC(=O)O[C@H]1CC[C@H]2[C@@H]3CCC4=CC(=O)CC[C@]4(C)[C@H]3CC[C@]12C [TESTOSTERONE PROPIONATE] , please.
Reply text: 18

Inquiry: Try the molecule CN1C(=O)C(F)=C[C@]2(C)[C@H]3CC[C@]4(C)[C@@H](C(=O)NCc5nc6cccnc6[nH]5)CC[C@H]4[C@@H]3CC[C@@H]12
Reply text: 196
